- Test system: duckweed (Lemna paucicostata)
- Assay explanation: secondary bioassay, dose-response curve based on growth rate of duckweed frond surface
- Format: in vivo
- Condition: Lemna aequinoctialis, growth rate of duckweed (Lemna paucicostata) frond surface; read-out: IC50 (μM), herbicidal activity in a secondary bioassay
Friendly reminder: IC50 below 3 µM is t, at or above is f.

CCCC1(CCC)OC(=O)C(=C(O)CCc2ccccc2)C(=O)O1 :: t
CC(C)CC(O)=C1C(=O)OC2(CCCC2)OC1=O :: f
O=C1OC2(CCCC2)OC(=O)C1=C(O)CCc1ccccc1 :: f
CC1(C)OC(=O)C(=C(O)c2ccc(C(F)(F)F)cc2[N+](=O)[O-])C(=O)O1 :: t

I'd appreciate it if you could check whether CC(C)CC(O)=C1C(=O)OC(C)(C)OC1=O has IC50 smaller than 3 µM.
t

Confirm or reject: IC50 of CC1(C)OC(=O)C(=C(O)CCc2ccccc2)C(=O)O1 lies strictly below 3 µM
f
